Property: pIC50; scope: individual compounds
- Tested on: Human alphaherpesvirus 3
- Method Description: In vitro inhibition of Thymidine Kinase deficient Varicella Zoster Virus (YS/R) plaque formation.
- Format: functional, organism-based
pIC50: −log10 of the molar value.

# Smiles Code, pIC50
rows = [
    ("O=S1(=O)N=C(OCc2ccccc2)c2ccccc2N1Cc1ccc(Cl)c(Cl)c1", "< 4.30"),
    ("O=C1c2ccccc2N(Cc2ccccc2Cl)S(=O)(=O)N1Cc1ccccc1", "< 4.70"),
]

Now for another entry.
Prompt line: Supply reported pIC50 belonging to this compound: O=C1c2ccccc2N(COCc2ccccc2)S(=O)(=O)N1Cc1ccccc1
Response line: < 4.92

* * *

- Test system: Human betaherpesvirus 5
- Method Description: In vitro inhibition of HCMV (Davis) plaque formation.
- Type: functional, organism-based
Experimental Readout: IC50

# Smiles Code, Measured On, Experimental Readout, Measured Value
rows = [
    ("O=C1c2ccccc2N(Cc2ccccc2Cl)S(=O)(=O)N1COCc1ccccc1", "Human betaherpesvirus 5", "IC50", "10 µM"),
    ("O=C1c2ccccc2N(Cc2cccc(Cl)c2)S(=O)(=O)N1Cc1ccccc1", "Human betaherpesvirus 5", "IC50", "> 5 µM"),
]

Moving on to another compound below.
Prompt line: Return reported IC50 for target or system Human betaherpesvirus 5, item O=C1c2ccccc2N(Cc2ccccc2)S(=O)(=O)N1Cc1ccccc1 .
Response line: 10 µM
